# assayed_target: His-tagged CRBN-DDB1 complex (Homo sapiens)
# measurement_description: Time-Resolved Fluorescence Resonance Energy Transfer (TR-FRET / HTRF) CRBN binding assay, displacement of Cy5-labeled thalidomide
# run_parameters: His-CRBN-DDB1, Cy5-thalidomide 8 nM, 1 hour room temperature
pIC50: −log10 of the molar value.
Recorded measurements of pIC50, one per entry

Observe how each entry below is paired with its result.
molecule	pIC50
O=c1[nH]c(=O)c2c(Br)cccc2[nH]1 [Compound I-56, 5-Bromo-1,3-dihydroquinazoline-2,4-dione]	< 4.00
CC(C)c1ccccc1Oc1cccc2c1C(=O)NC(=O)C2	> 5.00

Test item `O=C1Cc2c(F)cccc2C(=O)N1` ; His-tagged CRBN-DDB1 complex (Homo sapiens); reported pIC50 was 4.52 to 5.00

Test item `CCOC(=O)c1cccc(N2C[C@@H]3C(=O)NC(=O)[C@@H]3C2)c1` ; His-tagged CRBN-DDB1 complex (Homo sapiens); reported pIC50 was 4.52 to 5.00

Test item `O=C1NC(=O)[C@@H]2CN(c3ccc(Br)cc3)C[C@H]12` ; His-tagged CRBN-DDB1 complex (Homo sapiens); reported pIC50 was 4.00 to 4.52

Test item `O=C1CC2(CCN(C(=O)c3ccnc(Cl)c3)CC2)CC(=O)N1` ; His-tagged CRBN-DDB1 complex (Homo sapiens); reported pIC50 was < 4.00

Test item O=C1Cc2ccccc2C(=O)N1 [Compound I-5, 2,4-Dihydroisoquinoline-1,3-dione] ; His-tagged CRBN-DDB1 complex (Homo sapiens); reported pIC50 was < 4.00

Test item `O=C1CC2(CCN(c3cccc4ncccc34)CC2)CC(=O)N1` ; His-tagged CRBN-DDB1 complex (Homo sapiens); reported pIC50 was < 4.00

Test item `COc1ccc(CN2C[C@@H]3C(=O)NC(=O)[C@@H]3C2)cn1` ; His-tagged CRBN-DDB1 complex (Homo sapiens); reported pIC50 was < 4.00

Test item `O=C1Cc2cccc(Oc3ccccn3)c2C(=O)N1` ; His-tagged CRBN-DDB1 complex (Homo sapiens); reported pIC50 was < 4.00

---

# assayed_target: His-tagged CRBN-DDB1 complex (Homo sapiens, UniProt Q96SW2)
# Sequence (Q96SW2 whole entry): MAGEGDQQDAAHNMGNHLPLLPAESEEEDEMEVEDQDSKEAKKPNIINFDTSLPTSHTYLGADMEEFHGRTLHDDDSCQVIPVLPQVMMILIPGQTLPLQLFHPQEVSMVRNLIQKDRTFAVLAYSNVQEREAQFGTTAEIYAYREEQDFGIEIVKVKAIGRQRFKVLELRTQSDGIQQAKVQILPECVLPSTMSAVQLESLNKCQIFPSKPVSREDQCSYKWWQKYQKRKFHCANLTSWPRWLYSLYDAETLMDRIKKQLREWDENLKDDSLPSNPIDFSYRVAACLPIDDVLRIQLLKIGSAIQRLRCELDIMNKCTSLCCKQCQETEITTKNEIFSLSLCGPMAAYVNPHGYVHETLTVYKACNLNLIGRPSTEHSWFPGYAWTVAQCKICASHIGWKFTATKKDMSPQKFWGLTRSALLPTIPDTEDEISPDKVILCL
# Sequence (Q16531 whole entry partner): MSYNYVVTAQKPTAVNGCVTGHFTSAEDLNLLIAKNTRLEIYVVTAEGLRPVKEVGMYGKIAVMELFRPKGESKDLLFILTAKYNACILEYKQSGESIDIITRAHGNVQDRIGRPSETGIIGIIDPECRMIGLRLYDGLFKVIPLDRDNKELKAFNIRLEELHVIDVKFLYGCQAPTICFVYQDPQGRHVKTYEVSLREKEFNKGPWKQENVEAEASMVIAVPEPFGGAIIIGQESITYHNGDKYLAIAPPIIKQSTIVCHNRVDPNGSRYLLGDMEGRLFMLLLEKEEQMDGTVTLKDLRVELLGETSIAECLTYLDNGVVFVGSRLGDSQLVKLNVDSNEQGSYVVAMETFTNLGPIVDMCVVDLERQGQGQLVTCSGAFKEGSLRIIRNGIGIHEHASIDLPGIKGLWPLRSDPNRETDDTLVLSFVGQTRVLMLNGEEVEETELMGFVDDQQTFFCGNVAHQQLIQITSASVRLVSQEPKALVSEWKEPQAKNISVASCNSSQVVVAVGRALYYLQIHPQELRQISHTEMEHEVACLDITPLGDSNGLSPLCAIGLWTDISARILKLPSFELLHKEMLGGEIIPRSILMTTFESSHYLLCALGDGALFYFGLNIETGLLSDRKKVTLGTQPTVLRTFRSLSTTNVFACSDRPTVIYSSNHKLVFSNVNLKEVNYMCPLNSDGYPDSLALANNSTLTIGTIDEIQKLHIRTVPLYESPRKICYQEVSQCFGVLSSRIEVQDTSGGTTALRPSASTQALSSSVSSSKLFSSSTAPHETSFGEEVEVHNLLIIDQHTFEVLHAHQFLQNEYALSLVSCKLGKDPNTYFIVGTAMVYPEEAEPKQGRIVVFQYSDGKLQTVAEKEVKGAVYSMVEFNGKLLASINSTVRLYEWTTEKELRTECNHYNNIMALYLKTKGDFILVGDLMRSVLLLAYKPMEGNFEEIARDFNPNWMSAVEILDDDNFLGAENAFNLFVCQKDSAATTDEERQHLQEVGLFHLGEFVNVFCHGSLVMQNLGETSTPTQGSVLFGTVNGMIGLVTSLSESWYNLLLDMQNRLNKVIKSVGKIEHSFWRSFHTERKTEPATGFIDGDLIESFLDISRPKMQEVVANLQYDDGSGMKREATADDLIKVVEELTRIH
# measurement_description: Time-Resolved Fluorescence Resonance Energy Transfer (TR-FRET / HTRF) CRBN binding assay, displacement of Cy5-labeled thalidomide
# run_parameters: His-CRBN-DDB1, Cy5-thalidomide 8 nM, 1 hour room temperature
measure: IC50

Observe how each entry below is paired with its result.
compound	result
CC(=O)Nc1cccc(N2CCC3(CC2)CC(=O)NC(=O)C3)c1 [Compound I-100]	> 100 µM
COc1ccccc1-c1ccc2c(c1)C(=O)NC(=O)C2 [Compound I-18]	> 100 µM
O=C1CC2(CCN(C(=O)c3ccc4ccccc4c3)CC2)CC(=O)N1 [Compound I-368]	> 100 µM

// below: IC50 requested for another compound
Looking up O=C1CC2(CCN(c3cccc(OC(F)(F)F)c3)CC2)CC(=O)N1 [Compound I-102] , I found its IC50 recorded as > 100 µM

---

# assayed_target: CRBN-DDB1 (Homo sapiens)
Recorded measurements of IC50, one per entry

chemical_structure	IC50
O=C1Cc2cccc(C(=O)N3CCOc4ccccc43)c2C(=O)N1	30 to 100 µM
CC(C)(C)OC(=O)NCCCCCCCc1ccccc1Oc1cccc2c1C(=O)NC(=O)C2=O	30 to 100 µM
O=C1Cc2cccc(Oc3ccccn3)c2C(=O)N1	10 to 30 µM

Test item `O=C1Cc2cccc(COc3ccccc3)c2C(=O)N1` ; CRBN-DDB1 (Homo sapiens); reported IC50 was 10 to 30 µM

Test item `CC(C)(C)OC(=O)NCCCCCC#Cc1cccc(Oc2cccc3c2C(=O)NC(=O)C3=O)c1` ; CRBN-DDB1 (Homo sapiens); reported IC50 was < 10 µM

---

# assayed_target: His-tagged CRBN-DDB1 complex (Homo sapiens)
# measurement_description: Time-Resolved Fluorescence Resonance Energy Transfer (TR-FRET / HTRF) CRBN binding assay, displacement of Cy5-labeled thalidomide
# run_parameters: His-CRBN-DDB1, Cy5-thalidomide 8 nM, 1 hour room temperature
measure: IC50

compound	IC50
COc1ccc(C(=O)N2CCC3(CC2)CC(=O)NC(=O)C3)cn1	> 100 µM

Looking up `Cc1ccccc1-c1ccc2c(c1)C(=O)NC2=O` , I found its IC50 recorded as > 100 µM

Looking up `O=C1Cc2cccc(Br)c2C(=O)N1` , I found its IC50 recorded as 10 to 30 µM

Looking up `O=C1Cc2cccc(N3CCCCC3=O)c2C(=O)N1` , I found its IC50 recorded as 10 to 30 µM

---

# assayed_target: His-tagged CRBN-DDB1 complex (Homo sapiens, UniProt Q96SW2)
# measurement_description: Time-Resolved Fluorescence Resonance Energy Transfer (TR-FRET / HTRF) CRBN binding assay, displacement of Cy5-labeled thalidomide
# run_parameters: His-CRBN-DDB1, Cy5-thalidomide 8 nM, 1 hour room temperature
pIC50: −log10 of the molar value.
measure: pIC50

Observe how each entry below is paired with its result.
molecule	pIC50
O=C1NC(=O)[C@@H]2CN(Cc3ccc([N+](=O)[O-])s3)C[C@H]12 [Compound I-295]	4.00 to 4.52
CC(=O)NCc1cccc(Oc2cccc3c2C(=O)NC(=O)C3=O)c1 [Compound I-267]	4.52 to 5.00
Cc1cc2c(c(Oc3ccccc3)c1)C(=O)NC(=O)C2 [Compound I-203]	> 5.00

// below: pIC50 requested for another molecule
Looking up Nc1cccc2c1C(=O)NC(=O)C2(F)F [Compound I-71] , I found its pIC50 recorded as > 5.00

---

Recorded measurements of pIC50, one per entry
# assayed_target: His-tagged CRBN-DDB1 complex (Homo sapiens)
# measurement_description: Time-Resolved Fluorescence Resonance Energy Transfer (TR-FRET / HTRF) CRBN binding assay, displacement of Cy5-labeled thalidomide
# run_parameters: His-CRBN-DDB1, Cy5-thalidomide 8 nM, 1 hour room temperature
# Experimental: Time-Resolved Fluorescence Resonance Energy Transfer (TR-FRET) Assay. Equal volumes of His-tagged CRBN-DDB1 complex (56 nM) was mixed with Eu-cryptate labeled Anti-6HIS-monoclonal antibody (50× dilution from the commercial stock solution, Vender: Cisbio, Cat. #61HI2KLA) in a final buffer containing 20 mM HEPES pH 7.0, 150 mM NaCl, 0.005% Tween-20. […] The mixture were incubated at room temperature for 1 hour. […] FRET efficiency was calculated as the ratio of fluorescent signals at 665 nM/615 nM. […]
pIC50: −log10 of the molar value.

Observe how each entry below is paired with its result.
chemical_structure	pIC50
O=C1CC2(CCN(c3ccc(-c4ccccc4)c(F)c3)CC2)CC(=O)N1	< 4.00
O=C1NC(=O)[C@@H]2CN(C(=O)c3cccnn3)C[C@H]12	< 4.00

// below: pIC50 requested for another molecule
Test item `Cc1ncoc1-c1ccc2c(c1)C(=O)NC2=O` ; His-tagged CRBN-DDB1 complex (Homo sapiens); reported pIC50 was < 4.00

---

Recorded measurements of pIC50, one per entry
# assayed_target: His-tagged CRBN-DDB1 complex (Homo sapiens)
# measurement_description: Time-Resolved Fluorescence Resonance Energy Transfer (TR-FRET / HTRF) CRBN binding assay, displacement of Cy5-labeled thalidomide
# run_parameters: His-CRBN-DDB1, Cy5-thalidomide 8 nM, 1 hour room temperature
# Method: Time-Resolved Fluorescence Resonance Energy Transfer (TR-FRET) Assay. Equal volumes of His-tagged CRBN-DDB1 complex (56 nM) was mixed with Eu-cryptate labeled Anti-6HIS-monoclonal antibody (50× dilution from the commercial stock solution, Vender: Cisbio, Cat. #61HI2KLA) in a final buffer containing 20 mM HEPES pH 7.0, 150 mM NaCl, 0.005% Tween-20. […] The mixture were incubated at room temperature for 1 hour. […] FRET efficiency was calculated as the ratio of fluorescent signals at 665 nM/615 nM. […]
pIC50: −log10 of the molar value.

Observe how each entry below is paired with its result.
chemical_structure	result
O=C1Cc2cccc(Oc3ccccc3C(F)(F)F)c2C(=O)N1	> 5.00
Cc1ccccc1-c1cccc2c1C(=O)NC2=O	4.00 to 4.52
O=C1CC2(CCN(C(=O)c3ccn[nH]3)CC2)CC(=O)N1	< 4.00

Test item `O=C1NC(=O)[C@@H]2CN(c3ccc(OC(F)(F)F)cc3)C[C@H]12` ; His-tagged CRBN-DDB1 complex (Homo sapiens); reported pIC50 was < 4.00

Test item `Cc1cccc(Oc2cccc3c2C(=O)NC(=O)C3)c1` ; His-tagged CRBN-DDB1 complex (Homo sapiens); reported pIC50 was > 5.00

Test item `O=C1NC(=O)C(F)(F)c2cccc(Br)c21` ; His-tagged CRBN-DDB1 complex (Homo sapiens); reported pIC50 was < 4.00

Test item `COc1cc(F)ccc1N1C[C@@H]2C(=O)NC(=O)[C@@H]2C1` ; His-tagged CRBN-DDB1 complex (Homo sapiens); reported pIC50 was 4.00 to 4.52

Test item `O=C1NC(=O)[C@@H]2CN(C(=O)c3ccc(F)cc3)C[C@H]12` ; His-tagged CRBN-DDB1 complex (Homo sapiens); reported pIC50 was < 4.00

Test item `O=C1CCc2cccc(Oc3ccccc3)c2C(=O)N1` ; His-tagged CRBN-DDB1 complex (Homo sapiens); reported pIC50 was < 4.00

Test item `CC(=O)Nc1ccc2c(c1)C(=O)NC(=O)C2` ; His-tagged CRBN-DDB1 complex (Homo sapiens); reported pIC50 was 4.00 to 4.52

Test item `Cc1ccccc1-n1cc2c(n1)CC(=O)NC2=O` ; His-tagged CRBN-DDB1 complex (Homo sapiens); reported pIC50 was < 4.00

Test item `COC(=O)c1ccc(N2C[C@@H]3C(=O)NC(=O)[C@@H]3C2)cc1` ; His-tagged CRBN-DDB1 complex (Homo sapiens); reported pIC50 was < 4.00

Test item `O=C1NC(=O)[C@@H]2CN(Cc3ccc[nH]3)C[C@H]12` ; His-tagged CRBN-DDB1 complex (Homo sapiens); reported pIC50 was < 4.00

Test item `O=C1NC(=O)[C@@H]2CN(c3cccc4ncccc34)C[C@H]12` ; His-tagged CRBN-DDB1 complex (Homo sapiens); reported pIC50 was < 4.00

Test item `O=C1NC(=O)c2cc(NC(=O)N3CC=C(c4ccc(O)cc4)CC3)ccc21` ; His-tagged CRBN-DDB1 complex (Homo sapiens); reported pIC50 was 4.00 to 4.52

Test item `COc1ccc(C(=O)N2C[C@@H]3C(=O)NC(=O)[C@@H]3C2)cn1` ; His-tagged CRBN-DDB1 complex (Homo sapiens); reported pIC50 was < 4.00

Test item `O=C1CC2(CCN(C(=O)c3n[nH]c4ccccc34)CC2)CC(=O)N1` ; His-tagged CRBN-DDB1 complex (Homo sapiens); reported pIC50 was < 4.00

Entry source: patent US20220281831A1
